study.target: δ opioid receptors (Rattus norvegicus, UniProt P33533)
Sequence (P33533 whole entry): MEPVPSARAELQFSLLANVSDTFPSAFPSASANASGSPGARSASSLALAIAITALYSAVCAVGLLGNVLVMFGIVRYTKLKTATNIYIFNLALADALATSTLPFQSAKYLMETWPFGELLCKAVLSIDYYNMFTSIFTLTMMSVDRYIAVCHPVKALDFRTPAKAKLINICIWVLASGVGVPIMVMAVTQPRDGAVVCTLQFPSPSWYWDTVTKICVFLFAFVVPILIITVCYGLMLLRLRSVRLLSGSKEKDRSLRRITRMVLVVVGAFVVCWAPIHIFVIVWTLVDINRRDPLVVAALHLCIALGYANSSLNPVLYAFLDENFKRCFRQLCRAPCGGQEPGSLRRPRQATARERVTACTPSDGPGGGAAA
pIC50: −log10 of the molar value. Counter-ions that a name gives are not always drawn.
The threshold is inclusive: pIC50 of exactly 8 counts as criterion met; values below receive criterion not met.

Please review the following examples before continuing.
CN1CC[C@]23c4c5ccc(O)c4O[C@H]2c2oc4ccccc4c2C[C@H]3[C@H]1C5 [XI, monohydrochloride]: criterion met
CN1CC[C@]23c4c5ccc(O)c4O[C@H]2c2[nH]c4ccccc4c2C[C@H]3[C@H]1C5 [XII, monohydrochloride]: criterion met

Input: Please tell me: is the compound CN1CC[C@]23c4c5ccc(O)c4O[C@H]2c2oc4ccccc4c2C[C@@]3(O)[C@H]1C5 [II, monohydrochloride] at or over 8 in terms of pIC50?
Output: criterion met

Input: Please tell me: is the compound CN1CC[C@]23c4c5ccc(O)c4O[C@H]2c2[nH]c4c(ccc6ccccc64)c2C[C@@]3(O)[C@H]1C5 [III, monohydrochloride] at or over 8 in terms of pIC50?
Output: criterion not met

Input: Please tell me: is the compound CC(=O)O[C@@]12Cc3c([nH]c4ccccc34)[C@@H]3Oc4c(O)ccc5c4[C@@]31CCN(C)[C@@H]2C5 [XIX, monohydrochloride] at or over 8 in terms of pIC50?
Output: criterion met

Input: Please tell me: is the compound CN1CC[C@]23c4c5ccc(O)c4O[C@H]2c2[nH]c4c(Br)cccc4c2C[C@H]3[C@H]1C5 [XIII, monohydrochloride] at or over 8 in terms of pIC50?
Output: criterion not met

---

# Mean IC50 μ/δ Ratio per entry
study.target: δ opioid receptors (Rattus norvegicus)
test.method.notes: Opiate Binding Assay, displacement of 3[H]-DSLET (δ receptor)
recorded.conditions: ratio of mean IC50 values for μ and δ opioid receptors
Where a name gives a salt, the structure may show the parent alone.
Answer as a number with no unit attached.

CC(=O)O[C@@]12Cc3c([nH]c4ccccc34)[C@@H]3Oc4c(O)ccc5c4[C@@]31CCN(C)[C@@H]2C5 [XIX, monohydrochloride]: 769
CN1CC[C@]23c4c5ccc(O)c4O[C@H]2c2[nH]c4c(Br)cccc4c2C[C@H]3[C@H]1C5 [XIII, monohydrochloride]: 5.1

Input: Give the measured Mean IC50 μ/δ Ratio for C=CCN1CC[C@]23c4c5ccc(O)c4O[C@H]2c2[nH]c4ccccc4c2C[C@@]3(O)[C@H]1C5 [VIII, monohydrochloride]
Output: 71

Input: Give the measured Mean IC50 μ/δ Ratio for CN1CC[C@]23c4c5ccc(O)c4O[C@H]2c2[nH]c4c(Br)cccc4c2C[C@@]3(O)[C@H]1C5 [VII, monohydrochloride]
Output: 25.3

---

study.target: δ opioid receptors (Rattus norvegicus)
test.method.notes: Opiate Binding Assay, displacement of 3[H]-DSLET (δ receptor)
recorded.conditions: ratio of mean IC50 values for μ and δ opioid receptors
Structures can show the parent of a compound that is named as a salt.
We label by threshold. Values of Mean IC50 μ/δ Ratio strictly beneath 40 are 1 (yes). Values of 40 and up are 0 (no).

Please review the following examples before continuing.
CN1CC[C@]23c4c5ccc(O)c4O[C@H]2c2oc4ccccc4c2C[C@@]3(O)[C@H]1C5 [II, monohydrochloride]: 1 (yes)
CC(=O)Oc1ccc2c3c1O[C@H]1c4[nH]c5ccccc5c4C[C@@]4(O)[C@@H](C2)N(C)CC[C@]314 [XVII]: 1 (yes)
CN1CC[C@]23c4c5ccc(O)c4O[C@H]2c2[nH]c4c(ccc6ccccc64)c2C[C@@]3(O)[C@H]1C5 [III, monohydrochloride]: 1 (yes)
CN1CC[C@]23c4c5ccc(O)c4O[C@H]2c2[nH]c4ccccc4c2C[C@H]3[C@H]1C5 [XII, monohydrochloride]: 1 (yes)
CN1CC[C@]23c4c5ccc(O)c4O[C@H]2c2oc4ccccc4c2C[C@H]3[C@H]1C5 [XI, monohydrochloride]: 1 (yes)
COc1ccc2c3c1O[C@H]1c4oc5ccccc5c4C[C@@]4(OC)[C@@H](C2)N(C)CC[C@]314 [IV]: 0 (no)

Lab note: next compound to report on.
Input: # strict comparison: is reported Mean IC50 μ/δ Ratio < 40? input = Oc1ccc2c3c1O[C@H]1c4oc5ccccc5c4C[C@@]4(O)[C@@H](C2)N(CC2CCC2)CC[C@]314 [XV, monohydrochloride]
Output: 0 (no)

---

Lab note: pIC50 readings collected with μ opioid receptors (Rattus norvegicus) for the following compounds.
Sequence (P33535 whole entry): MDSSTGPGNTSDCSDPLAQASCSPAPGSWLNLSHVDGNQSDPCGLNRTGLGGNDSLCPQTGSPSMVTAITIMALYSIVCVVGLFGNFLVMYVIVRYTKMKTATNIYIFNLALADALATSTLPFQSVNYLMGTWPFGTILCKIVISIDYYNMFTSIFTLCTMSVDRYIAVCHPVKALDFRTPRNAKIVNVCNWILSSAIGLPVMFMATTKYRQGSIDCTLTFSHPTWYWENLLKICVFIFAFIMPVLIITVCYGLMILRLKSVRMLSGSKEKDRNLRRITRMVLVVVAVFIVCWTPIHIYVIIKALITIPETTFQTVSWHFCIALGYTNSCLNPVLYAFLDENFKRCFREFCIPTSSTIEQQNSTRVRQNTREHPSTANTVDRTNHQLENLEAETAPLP
Counter-ions that a name gives are not always drawn.
// pIC50 is dimensionless: -log10 of concentration (M)

Worked cases, pIC50 given:
CC(=O)O[C@@]12Cc3c([nH]c4ccccc34)[C@@H]3Oc4c(O)ccc5c4[C@@]31CCN(C)[C@@H]2C5 [XIX, monohydrochloride]: 6.11
C=CCN1CC[C@]23c4c5ccc(O)c4O[C@H]2c2[nH]c4ccccc4c2C[C@@]3(O)[C@H]1C5 [VIII, monohydrochloride]: 7.00
CN1CC[C@]23c4c5ccc(O)c4O[C@H]2c2[nH]c4c(ccc6ccccc64)c2C[C@@]3(O)[C@H]1C5 [III, monohydrochloride]: 6.26
COc1ccc2c3c1O[C@H]1c4oc5ccccc5c4C[C@@]4(OC)[C@@H](C2)N(C)CC[C@]314 [IV]: 4.67
CCCN1CC[C@]23c4c5ccc(O)c4O[C@H]2c2oc4ccccc4c2C[C@@]3(O)[C@H]1C5 [XIV, monohydrochloride]: 6.70

Input: Tell me pIC50 of CN1CC[C@]23c4c5ccc(O)c4O[C@H]2c2oc4ccccc4c2C[C@H]3[C@H]1C5 [XI, monohydrochloride] when tested on μ opioid receptors (Rattus norvegicus).
Output: 7.62

Input: Tell me pIC50 of CC(=O)Oc1ccc2c3c1O[C@H]1c4[nH]c5ccccc5c4C[C@@]4(O)[C@@H](C2)N(C)CC[C@]314 [XVII] when tested on μ opioid receptors (Rattus norvegicus).
Output: 5.88

Input: Tell me pIC50 of C=CCN1CC[C@]23c4c5ccc(O)c4O[C@H]2c2[nH]c4c(Br)cccc4c2C[C@@]3(O)[C@H]1C5 [X, monohydrochloride] when tested on μ opioid receptors (Rattus norvegicus).
Output: 5.41

---

study.target: δ opioid receptors (Rattus norvegicus)
Counter-ions that a name gives are not always drawn.
# pIC50 per entry
// pIC50 is dimensionless: -log10 of concentration (M)

COc1ccc2c3c1O[C@H]1c4oc5ccccc5c4C[C@@]4(OC)[C@@H](C2)N(C)CC[C@]314 [IV]: 7.36
CCCN1CC[C@]23c4c5ccc(O)c4O[C@H]2c2oc4ccccc4c2C[C@@]3(O)[C@H]1C5 [XIV, monohydrochloride]: 8.11

Attention now shifts to the item below.
Input: Tell me pIC50 of Oc1ccc2c3c1O[C@H]1c4oc5ccccc5c4C[C@@]4(O)[C@@H](C2)N(CC2CCC2)CC[C@]314 [XV, monohydrochloride] when tested on δ opioid receptors (Rattus norvegicus).
Output: 8.29

---

# Mean IC50 μ/δ Ratio per entry
study.target: δ opioid receptors (Rattus norvegicus)
test.method.notes: Opiate Binding Assay, displacement of 3[H]-DSLET (δ receptor)
recorded.conditions: ratio of mean IC50 values for μ and δ opioid receptors
Where a name gives a salt, the structure may show the parent alone.
Answer as a number with no unit attached.

Worked cases, Mean IC50 μ/δ Ratio given:
CN1CC[C@]23c4c5ccc(O)c4O[C@H]2c2[nH]c4ccccc4c2C[C@@]3(O)[C@H]1C5 [I, monohydrochloride]: 58
CCCN1CC[C@]23c4c5ccc(O)c4O[C@H]2c2oc4ccccc4c2C[C@@]3(O)[C@H]1C5 [XIV, monohydrochloride]: 26
C=CCN1CC[C@]23c4c5ccc(O)c4O[C@H]2c2[nH]c4c(Br)cccc4c2C[C@@]3(O)[C@H]1C5 [X, monohydrochloride]: 350

Attention now shifts to the item below.
Input: Give the measured Mean IC50 μ/δ Ratio for C=CCN1CC[C@]23c4c5ccc(O)c4O[C@H]2c2oc4ccccc4c2C[C@@]3(O)[C@H]1C5 [IX, monohydrochloride]
Output: 1100

---

Where a name gives a salt, the structure may show the parent alone.
Lab note: pIC50 readings collected with δ opioid receptors (Rattus norvegicus) for the following molecules.
// pIC50 is dimensionless: -log10 of concentration (M)

CN1CC[C@]23c4c5ccc(O)c4O[C@H]2c2[nH]c4c(Br)cccc4c2C[C@@]3(O)[C@H]1C5 [VII, monohydrochloride]: 8.00
C=CCN1CC[C@]23c4c5ccc(O)c4O[C@H]2c2oc4ccccc4c2C[C@@]3(O)[C@H]1C5 [IX, monohydrochloride]: 9.68

Input: Give the measured pIC50 for CN1CC[C@]23c4c5ccc(O)c4O[C@H]2c2[nH]c4ccccc4c2C[C@@]3(O)[C@H]1C5 [I, monohydrochloride]
Output: 8.59

Input: Give the measured pIC50 for C=CCN1CC[C@]23c4c5ccc(O)c4O[C@H]2c2[nH]c4c(Br)cccc4c2C[C@@]3(O)[C@H]1C5 [X, monohydrochloride]
Output: 7.95

Input: Give the measured pIC50 for C=CCN1CC[C@]23c4c5ccc(O)c4O[C@H]2c2[nH]c4ccccc4c2C[C@@]3(O)[C@H]1C5 [VIII, monohydrochloride]
Output: 8.85

Input: Give the measured pIC50 for CC(=O)Oc1ccc2c3c1O[C@H]1c4[nH]c5ccccc5c4C[C@@]4(OC(C)=O)[C@@H](C2)N(C)CC[C@]314 [XVIII, diacetate, monohydrochloride]
Output: 7.18

Input: Give the measured pIC50 for CC(=O)Oc1ccc2c3c1O[C@H]1c4[nH]c5ccccc5c4C[C@@]4(O)[C@@H](C2)N(C)CC[C@]314 [XVII]
Output: 7.47
